- assayName: self-splicing fitness, log relative to wild type (ln ratio); higher = more splicing; Tetrahymena group I intron in knt gene, E. coli kanamycin selection, DiMSum; sequences stand for … in CUCUCU…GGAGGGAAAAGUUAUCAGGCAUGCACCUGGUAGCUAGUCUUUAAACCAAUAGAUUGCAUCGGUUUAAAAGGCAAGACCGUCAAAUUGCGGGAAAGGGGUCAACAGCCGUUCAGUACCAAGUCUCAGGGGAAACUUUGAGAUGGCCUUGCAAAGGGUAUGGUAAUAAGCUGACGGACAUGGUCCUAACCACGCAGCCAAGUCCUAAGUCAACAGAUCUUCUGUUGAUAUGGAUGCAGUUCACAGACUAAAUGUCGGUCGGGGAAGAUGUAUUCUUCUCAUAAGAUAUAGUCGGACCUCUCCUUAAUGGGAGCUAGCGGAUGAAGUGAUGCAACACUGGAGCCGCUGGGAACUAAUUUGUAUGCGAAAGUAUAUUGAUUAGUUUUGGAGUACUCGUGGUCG;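 further: selection with 25 µg/mL kanamycin versus none on LB agar overnight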
- conditionDetails: 30 °C
outcomeMeasure: self-splicing fitness (ln)

UCUUAGCAAUAUUACGGAGG has a reported self-splicing fitness (ln) of -2.67

sequence CAUAAGCAAUAUUACGCCUU , self-splicing fitness (ln) observed: -3.7

Lookup result for AUCCAGCAAUAUUACGUUCG ; measured self-splicing fitness (ln): -2.47

For this sequence ( CUGCAGCAAUAUUACGGUUA ), measured self-splicing fitness (ln) is -2.6

Measured self-splicing fitness (ln), GCCCAGCAAUAUUACGACAU : -1.51

Looking up AGUCAGCAAUAUUACGCUAU , I see its self-splicing fitness (ln) listed as -0.623

Lab book: self-splicing fitness (ln) of CUCUAGCAAUAUUACGUUAU noted as -3.92

Record GGGAAGCAAUAUUACGCUUC . Reported self-splicing fitness (ln): -3.32

get_value(item= UUUCAGCAAUAUUACGGCCG , readout=self-splicing fitness (ln)) returns -0.936

// self-splicing fitness (ln) value for AUCAAGCAAUAUUACGUCGG : -3.01

# self-splicing fitness (ln) of GCCUAGCAAUAUUACGUUAA = -1.86

CCCGAGCAAUAUUACGCACC has a reported self-splicing fitness (ln) of -3.46

Reported self-splicing fitness (ln) of GCCAAGCAAUAUUACGUUUA : -2.97

Entry GUUAAGCAAUAUUACGGCGC , self-splicing fitness (ln) reported as 0.441

Sure, the documented self-splicing fitness (ln) for GCGAAGCAAUAUUACGCUUU is -2.27

The sequence ACAUAGCAAUAUUACGACCA showed self-splicing fitness (ln) equal to -0.589

response.value for GCCGAGCAAUAUUACGAGCG (field: self-splicing fitness (ln)) = 0.333

What the record says about GAGGAGCAAUAUUACGUACA : self-splicing fitness (ln) is -3.14

Reported self-splicing fitness (ln) for UGAAAGCAAUAUUACGUGGU was -3.22

So, GCUCAGCAAUAUUACGACUU ? Its self-splicing fitness (ln) was 0.064

For this sequence ( AGUCAGCAAUAUUACGCGCU ), measured self-splicing fitness (ln) is -3.02

CAAUAGCAAUAUUACGACUG has a reported self-splicing fitness (ln) of -0.326

Measured self-splicing fitness (ln), UCAUAGCAAUAUUACGCUGA : -2.32

self-splicing fitness (ln) reading for AGUAAGCAAUAUUACGUGUA : -2.16

For reference, reported self-splicing fitness (ln) for GGGCAGCAAUAUUACGCUAU stands at -1.13

Looking up CUGCAGCAAUAUUACGUUCG , I see its self-splicing fitness (ln) listed as -0.733

Lab book: self-splicing fitness (ln) of GCCUAGCAAUAUUACGGUUG noted as -3.8

// recorded self-splicing fitness (ln) for UGCAAGCAAUAUUACGUGAC : -2.65

Query AGAAAGCAAUAUUACGGACA yields self-splicing fitness (ln) of -0.632

Data point: GUAUAGCAAUAUUACGGCCG ; self-splicing fitness (ln) = -2.76

Noted for AAGGAGCAAUAUUACGCCUG : its self-splicing fitness (ln) reads -2.1

Entry UUACAGCAAUAUUACGUGUA — recorded self-splicing fitness (ln) = -2.48

// field: self-splicing fitness (ln); key: GUCAAGCAAUAUUACGAUCA ; value = -1.76

Just so you know, measured self-splicing fitness (ln) for GCAGAGCAAUAUUACGAGAC came out at -3.42

Lab note: measured self-splicing fitness (ln) of UUUAAGCAAUAUUACGGACG was -0.647

// recorded self-splicing fitness (ln) for GAAUAGCAAUAUUACGCAGG : -2.6

So, AUCCAGCAAUAUUACGCACG ? Its self-splicing fitness (ln) was -1.68

// sample GGGAAGCAAUAUUACGUGAU , its self-splicing fitness (ln) was -2.04

Just so you know, measured self-splicing fitness (ln) for CGAGAGCAAUAUUACGAUUC came out at -2.96

In plain terms, CGCUAGCAAUAUUACGAUCU has a documented self-splicing fitness (ln) of -0.867

// sample ACGCAGCAAUAUUACGCGUU , its self-splicing fitness (ln) was -3.56

Form: sequence = AUCGAGCAAUAUUACGAUAU ; self-splicing fitness (ln) = -2.14

Per the records, this sequence ( GGCUAGCAAUAUUACGAUCA ) has self-splicing fitness (ln) equal to -0.733

Looking up ACAGAGCAAUAUUACGCUCA , I found its self-splicing fitness (ln) recorded as -1.29

// recorded self-splicing fitness (ln) for UAGCAGCAAUAUUACGGAGA : -3.24

Lookup result for UGCGAGCAAUAUUACGUCAU ; measured self-splicing fitness (ln): -4.84

Form field self-splicing fitness (ln), entry CGGCAGCAAUAUUACGGUAG : -0.745

Measured self-splicing fitness (ln) of UAGUAGCAAUAUUACGCAAG : -2.78

// UGCGAGCAAUAUUACGUCGA : self-splicing fitness (ln) value = -2.22

Value of measured self-splicing fitness (ln) for the entry GCACAGCAAUAUUACGCCUC : -0.836

self-splicing fitness (ln) measured on ACUGAGCAAUAUUACGUAUA = -2.58

Reported self-splicing fitness (ln) for CUGGAGCAAUAUUACGGGAC was 0.251

self-splicing fitness (ln) measured on CGGGAGCAAUAUUACGAGUA = -2.74

# self-splicing fitness (ln) (sequence: AUAAAGCAAUAUUACGGCGA ) is 0.447

Record summary for UAGUAGCAAUAUUACGCUUG : reported self-splicing fitness (ln) = -0.659

Item: UACGAGCAAUAUUACGCCCU | self-splicing fitness (ln): -3.96

CAGUAGCAAUAUUACGGAGA has a reported self-splicing fitness (ln) of -2.32

Measured self-splicing fitness (ln), CCGCAGCAAUAUUACGUCAG : -0.624

Entry GUUCAGCAAUAUUACGGAUA ; self-splicing fitness (ln) = -0.566

Lab book: self-splicing fitness (ln) of AACCAGCAAUAUUACGAUGA noted as -0.753

Kindly note the recorded self-splicing fitness (ln) for AAGUAGCAAUAUUACGCGGA , which is -2.09

// sample UGCCAGCAAUAUUACGUACC , its self-splicing fitness (ln) was -3.09

Measured self-splicing fitness (ln) of GGGAAGCAAUAUUACGCUUU : -3.54

Sure, the documented self-splicing fitness (ln) for CCUCAGCAAUAUUACGGCAA is -3.12

So for ACUCAGCAAUAUUACGGCAA , the logged self-splicing fitness (ln) turned out to be -1.24

The recorded self-splicing fitness (ln) for UAUAAGCAAUAUUACGGGCU is -2.64

# self-splicing fitness (ln) (sequence: CGUCAGCAAUAUUACGAUUA ) is -0.469

----------
- assayName: self-splicing fitness, log relative to wild type (ln ratio); higher = more splicing; Tetrahymena group I intron in knt gene, E. coli kanamycin selection, DiMSum; sequences stand for … in CUCUCU…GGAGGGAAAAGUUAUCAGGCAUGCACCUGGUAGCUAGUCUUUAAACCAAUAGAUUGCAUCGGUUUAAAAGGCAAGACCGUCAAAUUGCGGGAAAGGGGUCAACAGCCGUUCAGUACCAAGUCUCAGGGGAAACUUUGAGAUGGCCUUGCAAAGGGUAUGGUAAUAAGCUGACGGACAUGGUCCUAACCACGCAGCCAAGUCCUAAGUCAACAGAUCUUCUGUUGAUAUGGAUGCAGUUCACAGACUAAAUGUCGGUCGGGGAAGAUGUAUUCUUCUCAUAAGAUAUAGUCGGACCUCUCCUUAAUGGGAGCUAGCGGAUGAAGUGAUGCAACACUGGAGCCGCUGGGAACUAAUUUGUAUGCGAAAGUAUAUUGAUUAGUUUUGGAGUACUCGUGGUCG
- conditionDetails: 37 °C
outcomeMeasure: self-splicing fitness (ln)
Give the value as a plain number.

Data point: CAUAAGCAAUAUUACGUUUA ; self-splicing fitness (ln) = -2.42

Input GCAUAGCAAUAUUACGGUGG . Output self-splicing fitness (ln): -1.31

The sequence identified as AAACAGCAAUAUUACGCAUA registered its self-splicing fitness (ln) at -0.419

Documented self-splicing fitness (ln) of GUCAAGCAAUAUUACGUCCA : -0.387

self-splicing fitness (ln) for CCUCAGCAAUAUUACGUUCC is -2.42

GET /value?item= GCAGAGCAAUAUUACGCAUG &field=self-splicing fitness (ln) returns -2.3

Kindly note the recorded self-splicing fitness (ln) for ACCAAGCAAUAUUACGGCGG , which is -0.733

Notebook: UGCCAGCAAUAUUACGUAUG , self-splicing fitness (ln) read as -0.775

Field self-splicing fitness (ln) (entry CCUGAGCAAUAUUACGCCAG ) reads -1.62

// self-splicing fitness (ln) value for AGGUAGCAAUAUUACGAUGC : -0.828

get_value(item= CGAAAGCAAUAUUACGCCAA , readout=self-splicing fitness (ln)) returns -2.41

Field self-splicing fitness (ln) (entry UAUGAGCAAUAUUACGCCUU ) reads -2.11

Measured self-splicing fitness (ln), GCGCAGCAAUAUUACGUAGU : 0.18

GET /value?item= AGAGAGCAAUAUUACGCGAA &field=self-splicing fitness (ln) returns -2.82

Reported self-splicing fitness (ln) of UAUCAGCAAUAUUACGGAUA : -1.85

Lab note: UUCUAGCAAUAUUACGCAGU gave self-splicing fitness (ln) of -3.11
